Target: 14-3-3 protein sigma (Homo sapiens)
Sequence (P31947 whole entry): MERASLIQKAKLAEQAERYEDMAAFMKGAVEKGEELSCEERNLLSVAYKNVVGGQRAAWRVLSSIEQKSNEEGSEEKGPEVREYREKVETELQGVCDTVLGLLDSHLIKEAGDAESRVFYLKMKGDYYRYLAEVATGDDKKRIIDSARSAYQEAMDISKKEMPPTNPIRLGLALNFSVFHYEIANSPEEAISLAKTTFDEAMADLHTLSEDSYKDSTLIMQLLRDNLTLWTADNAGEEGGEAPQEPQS
Test: Inhibition of 14-3-3sigma (unknown origin) assessed as reduction in 14-3-3sigma- mediated increase in MMP1 mRNA by cell based assay
pIC50: −log10 of the molar value.

Cpd Smiles | pIC50
O=C(COc1ccccc1P(=O)(O)O)Nc1cccc(Cl)c1Cl | 5.30

---

Molecular target: Serine/threonine-protein kinase PLK1 (Homo sapiens)
Sequence (P53350 whole entry): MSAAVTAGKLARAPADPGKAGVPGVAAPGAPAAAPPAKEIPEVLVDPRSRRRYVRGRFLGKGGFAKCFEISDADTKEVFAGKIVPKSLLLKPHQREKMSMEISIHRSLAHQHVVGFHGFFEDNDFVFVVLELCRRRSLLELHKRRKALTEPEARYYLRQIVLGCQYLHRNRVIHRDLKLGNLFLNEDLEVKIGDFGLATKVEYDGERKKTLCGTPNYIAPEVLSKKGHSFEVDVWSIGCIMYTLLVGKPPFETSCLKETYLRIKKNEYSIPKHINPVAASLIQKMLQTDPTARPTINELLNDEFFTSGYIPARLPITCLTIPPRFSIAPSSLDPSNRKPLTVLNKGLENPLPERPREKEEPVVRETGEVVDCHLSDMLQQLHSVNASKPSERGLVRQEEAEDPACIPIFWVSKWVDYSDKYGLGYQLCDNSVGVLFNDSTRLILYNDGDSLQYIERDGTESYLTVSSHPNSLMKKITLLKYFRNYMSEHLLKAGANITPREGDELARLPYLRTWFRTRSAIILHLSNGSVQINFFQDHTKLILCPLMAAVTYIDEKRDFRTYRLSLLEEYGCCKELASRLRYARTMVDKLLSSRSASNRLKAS

Cpd Smiles | Assay System | Unit | IC50
COc1ccc(Br)cc1/C=c1\sc2nc(=O)c(C)nn2c1=O | Serine/threonine-protein kinase PLK1 (Homo sapiens) | µM | 3.2

---

Target: Serine/threonine-protein kinase PLK3 (Homo sapiens, UniProt Q9H4B4)
Sequence (Q9H4B4 whole entry): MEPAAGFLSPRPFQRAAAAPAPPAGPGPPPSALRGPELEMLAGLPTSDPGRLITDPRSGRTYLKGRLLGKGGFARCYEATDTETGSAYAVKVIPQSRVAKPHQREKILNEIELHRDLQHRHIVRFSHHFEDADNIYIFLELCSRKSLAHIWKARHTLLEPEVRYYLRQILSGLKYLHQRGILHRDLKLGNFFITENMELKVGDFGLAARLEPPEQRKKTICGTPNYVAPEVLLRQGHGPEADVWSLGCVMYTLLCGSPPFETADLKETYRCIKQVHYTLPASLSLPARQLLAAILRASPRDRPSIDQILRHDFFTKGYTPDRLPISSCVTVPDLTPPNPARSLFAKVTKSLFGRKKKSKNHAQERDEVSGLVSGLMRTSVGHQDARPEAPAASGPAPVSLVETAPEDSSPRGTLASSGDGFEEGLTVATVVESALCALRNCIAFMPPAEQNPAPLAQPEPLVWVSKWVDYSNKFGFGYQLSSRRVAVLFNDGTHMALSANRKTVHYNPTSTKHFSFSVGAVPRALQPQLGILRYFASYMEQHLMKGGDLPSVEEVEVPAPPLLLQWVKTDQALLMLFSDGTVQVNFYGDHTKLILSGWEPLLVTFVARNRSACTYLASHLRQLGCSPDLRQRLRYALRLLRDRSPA
pIC50: −log10 of the molar value.

Cpd Smiles | Assay System | pIC50
COc1ccc(Br)cc1/C=c1\sc2nc(=O)c(C)nn2c1=O | Serine/threonine-protein kinase PLK3 (Homo sapiens, UniProt Q9H4B4) | 5.52

The measured values listed here are drawn from ChEMBL document CHEMBL3813646.
